Test: qHTS of pediatric cancer cell lines to identify multiple opportunities for drug repurposing: Confirmatory screen for NB1643 cells (AID 1347109); also: nearly all actives have a fitted effect of over 45% in size
Settings: NB1643 neuroblastoma cell viability; series mostly up to 45.9 µM
Inconclusive results are not listed. The source made the active and inactive calls. Calls follow the shape of the dose curve; as a rule, active = well fitted cell-killing curve with a large enough effect; inconclusive = small, poorly fitted or top-dose-only effect, or effect the other way; inactive = no such curve, though single readings can be large or run the other way.
Use one of these outcomes when replying: active, inactive

Could you please tell me the result logged for COC1CCC(C(=O)c2ccc3nc4c(cc3c2)CCCO4)CC1 (centres undefined) in this assay?
inactive

Item: `Cc1c(C(=O)Nc2ccc(N3C[C@@H](C)O[C@@H](C)C3)nc2)cccc1-c1ccc(OC(F)(F)F)cc1`
inactive

Item: `O=C(CC12CC3CC(CC(C3)C1)C2)Nc1cccc2nc(NCCNCCO)ccc12`
inactive

Item: `COc1ccc(-c2ccc3ncc4c(c3c2)n(-c2ccc(N3CCNCC3)c(C(F)(F)F)c2)c(=O)n4C)cn1`
active

Item: `COC(=O)[C@H](c1ccccc1Cl)N1CCc2sccc2C1`
inactive

Item: `C[C@@H]1C[C@H]2[C@@H]3CCC4=CC(=O)C=C[C@]4(C)[C@@]3(F)[C@@H](O)C[C@]2(C)[C@@]1(O)C(=O)CO`
inactive

Item: `CSc1cccc(Nc2ncc3cc(-c4c(Cl)cccc4Cl)c(=O)n(C)c3n2)c1`
active

Item: `CC[C@]1(O)C[C@H]2CN(CCC3=c4ccccc4=N[C]3[C@@](C(=O)OC)(c3cc4c(cc3OC)N(C)[C@H]3[C@@](O)(C(N)=O)[C@H](O)[C@]5(CC)C=CCN6CC[C@]43[C@@H]65)C2)C1`
active

Item: `Cc1cnc(-c2cc(N3CCN(C(=O)CCS(C)(=O)=O)CC3)ncc2Cl)c(C)c1`
inactive

Item: `CCC[C@H](Nc1nc(-c2ccc(NC(=O)NCC)c(OC)c2)ncc1C)c1cccnc1`
active

Item: `NC(N)=Nc1nc(CSCCC(N)=NS(N)(=O)=O)cs1`
inactive

Item: `C[C@@H]1[C@H](O)[C@@H](C)C=CC=CC=CC=CC=CC=CC=C[C@H](O[C@@H]2O[C@H](C)[C@H](O)[C@H](N)[C@@H]2O)C[C@@H]2O[C@](O)(C[C@@H](O)C[C@@H](O)[C@H](O)CC[C@@H](O)C[C@@H](O)CC(=O)O[C@H]1C)C[C@H](O)[C@@H]2C(=O)O`
inactive

Item: `CC(=O)N1CCN(c2ccc(OCc3nn(C)c(C)c3-c3cccc4c(CCCOc5cc(C)c(Cl)c(C)c5)c(C(=O)O)n(Cc5cccnc5)c34)cc2)CC1`
inactive

Item: CC1=C(CC(=O)O)c2cc(F)ccc2C1=Cc1ccc(S(C)=O)cc1 (centres undefined)
inactive

###

Assay: Quantitative High-Throughput drug screen in 47 multiple myeloma cell lines against the NCATS MIPE library collection: MM1R_ATCC cell viability assay (AID 1918981); also: nearly all actives have a fitted effect of over 35% in size
Conditions: MM1R multiple myeloma cells, CellTiter-Glo viability, 48 h; series mostly up to 45.8 µM
Inconclusive results are not listed. Calls of active or inactive are those of the source. The call rests on the fitted dose curve; in most records, active means well fitted cell-killing curve with a large enough effect; inconclusive means small, poorly fitted or top-dose-only effect, or effect the other way; inactive means no such curve, though single readings can be large or run the other way.
Use one of these outcomes when replying: active, inactive

Could you please tell me the result logged for `Fc1ccc(CNc2ncnc3ccc(F)cc23)cc1` in this assay?
active

Item: `CCc1cc(-c2n[nH]c(C)c2-c2ccc3c(c2)OCCO3)c(O)cc1O`
active

Item: Nc1ncnc2c1c(-c1cccc(OCc3ccccc3)c1)cn2C1CC(CN2CCC2)C1 (stereo not given)
active

Item: `Oc1cc(O)cc(C=Cc2ccc(O)c(O)c2)c1`
active

Item: `CN(C)S(=O)(=O)c1ccc2c(c1)C(=Cc1cc3c([nH]1)CCCC3)C(=O)N2`
active

Item: `CCN1C[C@H](C)n2c(c(O)c3c(=O)n(Cc4ccc(F)c(Cl)c4)nc(C(=O)NC)c32)C1=O`
active

Item: `CCCCC(C)(C)[C@H](O)C=C[C@H]1[C@H](O)CC(=O)[C@H]1CC=CCCCC(=O)O`
active

Item: `CCCCOCCOc1nc(-c2ccc(C(=O)O)c(F)c2)sc1C`
inactive

Item: `COc1nc(C)cnc1NS(=O)(=O)c1cccnc1-c1ccc(-c2nnco2)cc1`
inactive

Item: `CN[C@H]1[C@@H](O[C@@H]2[C@H](O[C@@H]3[C@@H](O)[C@@H](O)[C@@H](N=C(N)N)[C@@H](O)[C@@H]3N=C(N)N)O[C@H](C)[C@@]2(O)C=O)O[C@@H](CO)[C@@H](O)[C@H]1O`
inactive

Item: CC1(C)C(N(O)C(=O)Nc2ccc(Cl)cc2)N(c2ccc(Cl)cc2)C(=O)N1CC(=O)NN=CC=Cc1ccc([N+](=O)[O-])o1 (stereo not given)
active

Item: `COc1cc2nccc(Oc3ccc(NC(=O)Nc4ccc(F)cc4F)c(F)c3)c2cc1OC`
active

Item: `COc1cc(C=CC(=O)O)ccc1O`
inactive

Item: `O=C(O)CCC=CCC[C@@H]1[C@H](N2CCCCC2)[C@@H](O)C[C@@H]1OCc1ccc(-c2ccccc2)cc1`
inactive

Item: `CC1(C)[C@H]2CC[C@]3(C)[C@@H](C(=O)C=C4[C@@H]5C[C@@](C)(C(=O)O)CC[C@]5(C)CC[C@]43C)[C@@]2(C)CC[C@@H]1O`
inactive

Item: `C[C@@H]1CCO[C@H]2Cn3cc(C(=O)NCc4ccc(F)cc4F)c(=O)c(O)c3C(=O)N12`
active

Item: `CCC[C@@H](NC(=O)[C@@H]1[C@H]2CCC[C@@H]2CN1C(=O)[C@@H](NC(=O)[C@@H](NC(=O)c1cnccn1)C1CCCCC1)C(C)(C)C)C(=O)C(=O)NC1CC1`
active

Item: `Cc1nc(C(=O)NCC(=O)O)c(O)c2ccc(Oc3ccccc3)cc12`
inactive

Item: `CC(C)=CCCC(C)=CCCC(C)=CCCC(C)=CCCC(C)=CCCC(C)=CCCC(C)=CCCC(C)=CCCC(C)=CCO`
inactive

Item: `CC(C)CN(C[C@@H](O)[C@H](Cc1ccccc1)NC(=O)O[C@H]1CO[C@H]2OCC[C@H]21)S(=O)(=O)c1ccc(N)cc1`
active

Item: `Nc1ccn([C@@H]2O[C@H](CO)[C@@H](O)[C@H]2O)c(=O)n1`
active

Item: `OC[C@H]1O[C@@H](Oc2ccc(O)cc2)[C@H](O)[C@@H](O)[C@H]1O`
inactive

Item: `O=C(Nc1ncc(SCCN2CCCC2)s1)[C@]1(c2ccc(S(=O)(=O)C3CC3)cc2)C[C@@H]1C1CCCCC1`
active

Item: `O=C(Nc1cccc(Cl)c1)Nc1ncc(CCNc2ncnc3ccsc23)s1`
active

Item: `Cc1[nH]c(C=C2C(=O)Nc3ccc(S(=O)(=O)N(C)c4cccc(Cl)c4)cc32)c(C)c1C(=O)N1CCN(C)CC1`
active

Item: `O=C(Nc1ccc(OC(F)(F)F)cc1)c1sccc1NCc1ccnc2ccccc12`
active

Item: `Cn1cc(-c2ccc3nnc(Sc4ccc5ncccc5c4)n3n2)cn1`
active

Item: CCCCCOC(=O)Nc1nc(=O)n([C@@H]2O[C@H](C)[C@@H](O)C2O)cc1F (stereo not given in full)
inactive

Item: `Cc1ccc(NC(=O)c2cccc(N(C)C)c2)cc1NC(=O)c1ccc(O)cc1`
active

Item: `O=c1cc(-c2ccc(O)c(O)c2)oc2cc(O)cc(O)c12`
inactive

Item: `COc1ccc(-c2cc(=O)c3c(O)cc(O[C@@H]4O[C@H](CO[C@@H]5O[C@@H](C)[C@H](O)[C@@H](O)[C@@H]5O)[C@@H](O)[C@H](O)[C@@H]4O)cc3o2)cc1O`
inactive

Item: `COc1c(C)c2c(c(O)c1CC=C(C)CCC(=O)O)C(=O)OC2`
active

Item: `CNC(=O)c1cc(Oc2ccc(NC(=O)Nc3ccc(Cl)c(C(F)(F)F)c3)c(F)c2)ccn1`
active

Item: `CCCCC(F)(F)[C@@]1(O)CC[C@H]2[C@H](CC(=O)[C@@H]2CCCCCCC(=O)O)O1`
inactive

Item: `Cc1cc(OCCCS(C)(=O)=O)cc(C)c1-c1cccc(COc2ccc3c(c2)OC[C@H]3CC(=O)O)c1`
active

###

Assay: Quantitative High-Throughput drug screen in 47 multiple myeloma cell lines against the NCATS MIPE library collection: KMS28BM_JCRB cell viability assay (AID 1919874); also: nearly all actives have a fitted effect of over 35% in size
Settings: CellTiter-Glo ATP, 48 h; series mostly up to 45.8 µM
Text: PI: Beverly A. Mock Ph.D. Laboratory of Cancer Biology and Genetics, Center for Cancer Research, National Cancer Institute, National Institute of Health, Bethesda, Maryland […] 5; Detector; 425V; Luminescence; Viewlux PerkinElmer. […] 1. […] Briefly, the corresponding myeloma cell lines were screened in 1,536-well plates with 500 cells, 5-uL per well for inhibition of cell viability (assessed by measuring ATP levels with CellTiterGlo). […]
Records with an inconclusive call do not appear. Activity calls are given as the source filed them. Calls come from the whole dose curve; as a rule, active = well fitted cell-killing curve with a large enough effect; inconclusive = small, poorly fitted or top-dose-only effect, or effect the other way; inactive = no such curve, though single readings can be large or run the other way.
Use one of these outcomes when replying: active, inactive

Could you please tell me the result logged for CC1=C(C(=O)Nc2cc3cn[nH]c3cc2F)C(c2ccc(C(F)(F)F)cc2)CC(=O)N1 (centres undefined) in this assay?
inactive

Item: CNC1CCC(N(Cc2cccc(-c3ccncc3)c2)C(=O)c2sc3ccccc3c2Cl)CC1 (centres undefined)
active

Item: `C#CCN(C)CC1=Cc2ccccc2Oc2ccccc21`
inactive

Item: `CN1CCC[C@H]1CCO[C@](C)(c1ccccc1)c1ccc(Cl)cc1`
active

Item: `CC1(C)[C@H]2CC[C@]3(C)[C@@H](C(=O)C=C4[C@@H]5C[C@@](C)(C(=O)O)CC[C@]5(C)CC[C@]43C)[C@@]2(C)CC[C@@H]1O`
inactive

Item: `CC(C)C[C@H](NC(=O)c1cc2ccccc2s1)C(=O)N1CCN(C(=O)[C@H](CO)NS(=O)(=O)c2ccc(Cl)cc2Cl)CC1`
active

Item: `CCc1cccc(CC)c1NC(=O)N1Cc2[nH]nc(NC(=O)c3ccc(N4CCN(C)CC4)cc3)c2C1`
active

Item: `Oc1ccc(C=Cc2cc(O)cc(O)c2)cc1`
inactive

Item: `Cc1ccc2c(c1)c1c(n2CCc2ccc(C)nc2)CCN(C)C1`
inactive
